Experiment: in vitro
Details: Frings audiogenic, mouse, brain homogenate
RECORDED ENDPOINT: half-life

>  <QUERY SMILES>
CC[C@H](C)[C@H](NC(=O)[C@H](CC(C)C)NC(=O)[C@H](CCC(=O)O)NC(=O)[C@H](CCC(N)=O)NC(=O)[C@H](CC(N)=O)NC(=O)[C@H](CCC(=O)O)NC(=O)[C@H](CCC(N)=O)NC(=O)[C@H](CC(C)C)NC(=O)[C@H](CCC(=O)O)NC(=O)[C@H](CCC(=O)O)NC(=O)[C@H](CCC(=O)O)NC(=O)CN)C(=O)N[C@@H](CCCNC(=N)N)C(=O)N[C@@H](CCC(=O)O)C(=O)N[C@@H](CCCCN)C(=O)N[C@@H](CO)C(=O)N[C@@H](CC(N)=O)C(N)=O

>  <REPORTED VALUE>
1.6 min

$$$$
